# Tested on: Artemia salina nauplii
# Method: Artemia salina nauplii lethality (ecotoxicity) bioassay
# Type: in vivo
# Condition Description: 25 and 50 μM, 48 h of exposure

{"Molecule": "COc1ccc(/C=C/C(=O)c2ccc(O)cc2O)cc1OC [11a]", "mortality of Artemia salina nauplii": "less than 10%"}
{"Molecule": "COc1cc(/C=C/C(=O)c2ccc(OCc3cn([C@@H]4O[C@H](COC(C)=O)[C@@H](OC(C)=O)[C@H](OC(C)=O)[C@H]4OC(C)=O)nn3)cc2O)cc(OC)c1OC", "mortality of Artemia salina nauplii": "less than 10%"}
{"Molecule": "COc1cc(/C=C/C(=O)c2ccc(O)cc2O)cc(OC)c1OC [11b]", "mortality of Artemia salina nauplii": "less than 10%"}
{"Molecule": "COc1cc(-c2cc(=O)c3c(O)cc(O)cc3o2)cc(OC)c1OC", "mortality of Artemia salina nauplii": "less than 10%"}

* * *

# Test system: Mytilus galloprovincialis plantigrade larvae
# Method: Mussel (Mytilus galloprovincialis) larvae anti-settlement bioassay
# Assay type: in vivo
# Condition Description: 15 h, 15 h exposure, read-out: EC50 (minimum concentration that inhibited 50% of larval settlement)
Give EC50 for every item shown.
Use µg/mL as the unit, but write only the number.

So what does the record say about EC50 for C#CCOc1ccc(C(=O)/C=C/c2cc(OC)c(OC)c(OC)c2)c(O)c1 [6b] ?
31.5

What measured EC50 goes with COc1cc(/C=C/C(=O)c2ccc(OCc3cn(CCO[C@H]4O[C@H](COC(C)=O)[C@@H](OC(C)=O)[C@H](OC(C)=O)[C@@H]4OC(C)=O)nn3)cc2O)cc(OC)c1OC [8b] ?
42.4

Field request: EC50 | item: COc1ccc(/C=C/C(=O)c2ccc(OCc3cn(CCO[C@@H]4O[C@H](COC(C)=O)[C@@H](OC(C)=O)[C@H](OC(C)=O)[C@H]4OC(C)=O)nn3)cc2O)cc1OC [8a]
27.1

If you can, please state the reported EC50 value of COc1ccc(-c2cc(=O)c3c(O)cc(OCc4cn(CCO[C@@H]5O[C@H](COC(C)=O)[C@@H](OC(C)=O)[C@H](OC(C)=O)[C@H]5OC(C)=O)nn4)cc3o2)cc1OC [4a] .
32.8

Bench note: what EC50 did C#CCOc1ccc(C(=O)/C=C/c2ccc(OC)c(OC)c2)c(O)c1 [6a] show?
28.6

State the recorded EC50 for this entry: COc1cc(-c2cc(=O)c3c(O)cc(OCc4cn(CCO[C@@H]5O[C@H](COC(C)=O)[C@@H](OC(C)=O)[C@H](OC(C)=O)[C@H]5OC(C)=O)nn4)cc3o2)cc(OC)c1OC [4b]
38.6
